Recorded values, source ChEMBL document CHEMBL1151962.

- System: A2780
- Experiment Description: Antiproliferative activity against human A2780 cells after 72 hrs by cell Titer_Glo assay
- Assay type: functional, cell-based
- Test Settings: A2780, 72 h
Threshold 500 nM. IC50 below it: Y. IC50 at it or above: N.

CN1CCN(c2cccc(Nc3ncc4c(n3)-c3c(c(C(N)=O)nn3C)CC4)c2)CC1; Y
CNC(=O)c1nn(C)c2c1C(C)(C)Cc1cnc(Nc3ccc(OC4CCN(C)CC4)cc3)nc1-2; Y
CNC(=O)c1nn(C)c2c1C(C)(C)Cc1cnc(Nc3cccc(N(C)C)c3)nc1-2; N
CNC(=O)c1nn(C)c2c1C(C)(C)Cc1cnc(Nc3ccc(N4CCOCC4)cc3)nc1-2; Y
CNC(=O)c1nn(C)c2c1C(C)(C)Cc1cnc(Nc3ccc(CN4CCOCC4)cc3)nc1-2; Y
CNC(=O)c1nn(C)c2c1C(C)(C)Cc1cnc(Nc3ccc(CN(C)C)cc3)nc1-2; Y
CNC(=O)c1nn(C)c2c1C(C)(C)Cc1cnc(Nc3cccc(CN4CCN(C)CC4)c3)nc1-2; N
CNC(=O)c1nn(C)c2c1C(C)(C)Cc1cnc(Nc3cccc(N4CCOCC4)c3)nc1-2; N
Cn1nc(C(=O)NCc2ccccc2)c2c1-c1nc(Nc3ccccc3)ncc1CC2; N
Cn1nc(C(=O)NCCO)c2c1-c1nc(Nc3ccccc3)ncc1CC2; N
CN1CCN(c2ccc(Nc3ncc4c(n3)-c3c(c(C(N)=O)nn3C)CC4)cc2)CC1; Y
Cn1nc(C(N)=O)c2c1-c1nc(Nc3ccc(N4CCOCC4)cc3)ncc1CC2; Y
CNC(=O)c1nn(C)c2c1C(C)(C)Cc1cnc(Nc3ccc(N4CCN(C)CC4)cc3)nc1-2 [MILCICLIB]; Y
CNC(=O)c1nn(C)c2c1C(C)(C)Cc1cnc(Nc3cccc(CN4CCOCC4)c3)nc1-2; N
CNC(=O)c1nn(C)c2c1C(C)(C)Cc1cnc(Nc3ccc(CN4CCN(C)CC4)cc3)nc1-2; Y
CNC(=O)c1nn(C)c2c1C(C)(C)Cc1cnc(Nc3cccc(N4CCN(C)CC4)c3)nc1-2; N
CNC(=O)c1nn(C)c2c1CCc1cnc(Nc3ccc(N4CCN(C)CC4)cc3)nc1-2; Y

###

Target protein (sequence): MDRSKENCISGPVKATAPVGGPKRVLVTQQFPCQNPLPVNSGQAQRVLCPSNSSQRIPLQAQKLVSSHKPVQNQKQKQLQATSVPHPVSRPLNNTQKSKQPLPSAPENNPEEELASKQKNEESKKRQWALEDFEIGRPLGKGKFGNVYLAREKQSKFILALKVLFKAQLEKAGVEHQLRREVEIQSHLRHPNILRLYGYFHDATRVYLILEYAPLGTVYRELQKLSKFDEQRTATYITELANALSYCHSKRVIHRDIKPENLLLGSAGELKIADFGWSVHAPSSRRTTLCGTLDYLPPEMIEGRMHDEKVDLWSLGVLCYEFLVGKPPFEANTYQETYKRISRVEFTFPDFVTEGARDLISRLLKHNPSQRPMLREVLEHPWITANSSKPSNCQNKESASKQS
In plain terms, low IC50, meaning strictly below 2 µM, gives TRUE, and everything else gives FALSE.

CNC(=O)c1nn(C)c2c1C(C)(C)Cc1cnc(Nc3ccc(CN4CCN(C)CC4)cc3)nc1-2; TRUE
Cn1nc(C(N)=O)c2c1-c1nc(Nc3ccc(N4CCOCC4)cc3)ncc1CC2; TRUE
CNC(=O)c1nn(C)c2c1C(C)(C)Cc1cnc(Nc3ccc(N4CCN(C)CC4)cc3)nc1-2; TRUE
CN1CCN(c2cccc(Nc3ncc4c(n3)-c3c(c(C(N)=O)nn3C)CC4)c2)CC1; TRUE
CNC(=O)c1nn(C)c2c1C(C)(C)Cc1cnc(Nc3cccc(CN(C)C)c3)nc1-2; FALSE

###

- Experiment Description: Solubility at pH 7
- Format: physicochemical
- Test Settings: buffer
Label true (1) when solubility is at or above 50 µM; anything below gets false (0).

CNC(=O)c1nn(C)c2c1C(C)(C)Cc1cnc(Nc3cccc(N4CCN(C)CC4)c3)nc1-2; true (1)
CNC(=O)c1nn(C)c2c1C(C)(C)Cc1cnc(Nc3ccc(CN(C)C)cc3)nc1-2; true (1)
Cn1nc(C(=O)NCCO)c2c1-c1nc(Nc3ccccc3)ncc1CC2; false (0)
CNC(=O)c1nn(C)c2c1C(C)(C)Cc1cnc(Nc3cccc(CN4CCOCC4)c3)nc1-2; true (1)
CNC(=O)c1nn(C)c2c1C(C)(C)Cc1cnc(Nc3cccc(CN4CCN(C)CC4)c3)nc1-2; true (1)
Cn1nc(C(=O)NCc2ccccc2)c2c1-c1nc(Nc3ccccc3)ncc1CC2; false (0)
CNC(=O)c1nn(C)c2c1CCc1cnc(Nc3ccc(N4CCN(C)CC4)cc3)nc1-2; true (1)
Cn1nc(C(N)=O)c2c1-c1nc(Nc3ccccc3)ncc1CC2; false (0)
CNC(=O)c1nn(C)c2c1C(C)(C)Cc1cnc(Nc3cccc(N(C)C)c3)nc1-2; false (0)
Cn1nc(C(N)=O)c2c1-c1nc(Nc3ccc(N4CCOCC4)cc3)ncc1CC2; false (0)
CNC(=O)c1nn(C)c2c1C(C)(C)Cc1cnc(Nc3ccc(N4CCOCC4)cc3)nc1-2; false (0)
Cn1nc(C(N)=O)c2c1-c1nc(Nc3ccccc3)ncc1CC2(C)C; false (0)
CNC(=O)c1nn(C)c2c1C(C)(C)Cc1cnc(Nc3ccc(N(C)C)cc3)nc1-2; true (1)
Cn1nc(C(=O)NC2CCCC2)c2c1-c1nc(Nc3ccccc3)ncc1CC2; false (0)
